- Assayed Target: T1, human CXCR2 (human, UniProt P25025 1-360)
- T1 construct: also called CXC chemokine receptor 2; hCXCR2
- T1 sequence: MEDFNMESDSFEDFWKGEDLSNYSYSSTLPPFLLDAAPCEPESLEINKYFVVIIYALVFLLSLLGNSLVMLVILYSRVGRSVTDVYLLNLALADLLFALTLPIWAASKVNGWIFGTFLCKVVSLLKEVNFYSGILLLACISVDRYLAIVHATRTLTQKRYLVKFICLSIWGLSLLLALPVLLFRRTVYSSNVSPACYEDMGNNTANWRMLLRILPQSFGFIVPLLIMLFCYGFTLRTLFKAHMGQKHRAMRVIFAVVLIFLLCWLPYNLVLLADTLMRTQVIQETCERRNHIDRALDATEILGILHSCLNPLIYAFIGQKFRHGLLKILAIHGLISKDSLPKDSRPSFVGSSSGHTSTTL
- Assay Comment: flow cytometry, CXCR2-transfected Expi293F cells
Max binding (MFI) overview
Numeric answer only, unit MFI assumed.

BKO-4A8 combinatorial variant 102c (antibody, human IgG4 S228P, lambda, V domains shown, IgG4 S228P, lambda) VH: EVQLLESGGGLVQPGGSLRLSCAASGFTFSSSTQSWVRQPPGKGLEWVSAISGRGRSTYYADSVKGRFTISRDNSKNTLYLQMNSLRAEDTAVYYCAIQEGYWGQGILVTVSS VL: QSALTQPPSASGSPGQSVTISCIGTSSDVGGYNYVSWYQQHPGKAPKLMIYEVSKRPSGVPDRFSGSKSGNTASLTVSGLQAEDEADYYCSSYAGSNNFGVFGGGTKLTVLG ... 33000
BKO-4A8-101c (antibody, human IgG4 S228P, lambda, V domains shown) VH: EVQLLESGGGLVQPGGSLRLSCAASGFTFSSSTQSWVRQPPGKGLEWVSAISGRGRSTYYADSVKGRFTISRDNSKNTLYLQMNSLRAEDTAVYYCAIQAGYWGQGILVTVSS VL: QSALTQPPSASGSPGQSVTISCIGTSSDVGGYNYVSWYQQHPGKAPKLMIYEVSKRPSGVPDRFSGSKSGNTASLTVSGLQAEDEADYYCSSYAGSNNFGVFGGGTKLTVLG ... 55000

Now let's try a different one.
Give its Max binding (MFI) value. Item: BKO-4A8 combinatorial variant 106c (antibody, human IgG4 S228P, lambda, V domains shown, IgG4 S228P, lambda) VH: EVQLLESGGGLVQPGGSLRLSCAASGFTFSSSTQSWVRQPPGKGLEWVSAISGSGGSTYYADSVKGRFTISRDNSKNTLYLQMNSLRAEDTAVYYCAIQEGYWGQGILVTVSS VL: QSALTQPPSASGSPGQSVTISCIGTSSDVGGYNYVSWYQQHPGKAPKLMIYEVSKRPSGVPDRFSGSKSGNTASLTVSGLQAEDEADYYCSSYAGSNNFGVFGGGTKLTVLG
11600
